# Tested on: HeLa Kyoto
# procedure-details: melting temperature (median over replicates), in situ; higher = more thermally stable
# measurement-context: cell cycle stage: mitosis
metric: melting temperature
Record the result as number plus unit.

Example cases with answers are listed next.
| record-sequence | reported-value |
| --- | --- |
| MAGPESDAQYQFTGIKKYFNSYTLTGRMNCVLATYGSIALIVLYFKLRSKKTPAVKAT [USMG5] | 52.6 °C |
| MALHSMRKARERWSFIRALHKGSAAAPALQKDSKKRVFSGIQPTGILHLGNYLGAIESWVRLQDEYDSVLYSIVDLHSITVPQDPAVLRQSILDMTAVLLACGINPEKSILFQQSQVSEHTQLSWILSCMVRLPRLQHLHQWKAKTTKQKHDGTVGLLTYPVLQAADILLYKSTHVPVGEDQVQHMELVQDLAQGFNKKYGEFFPVPESILTSMKKVKSLRDPSAKMSKSDPDKLATVRITDSPEEIVQKFRKAVTDFTSEVTYDPAGRAGVSNIVAVHAAVTGLSVEEVVRRSAGMNTARYKLAVADAVIEKFAPIKREIEKLKLDKDHLEKVLQIGSAKAKELAYTVCQEVKKLVGFL [WARS2] | 49.2 °C |

Please look at the following sequence next.
Identify measured melting temperature obtained with HeLa Kyoto for MGLFGKTQEKPPKELVNEWSLKIRKEMRVVDRQIRDIQREEEKVKRSVKDAAKKGQKDVCIVLAKEMIRSRKAVSKLYASKAHMNSVLMGMKNQLAVLRVAGSLQKSTEVMKAMQSLVKIPEIQATMRELSKEMMKAGIIEEMLEDTFESMDDQEEMEEEAEMEIDRILFEITAGALGKAPSKVTDALPEPEPPGAMAASEDEEEEEEALEAMQSRLATLRS [CHMP3] . 51 °C

* * *

# melting temperature annotations
# Test system: HeLa Kyoto;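 also: HeLa Kyoto cells synchronized by double thymidine or nocodazole block, proteins quantified by TMT10plex mass spectrometry, three independent biological replicates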
# procedure-details: melting temperature (median over replicates), in situ; higher = more thermally stable
# measurement-context: cell cycle stage: mitosis
Unit °C implied. Number only.

Identify measured melting temperature obtained with HeLa Kyoto for MGRSRSRSPRRERRRSRSTSRERERRRRERSRSRERDRRRSRSRSPHRRRSRSPRRHRSTSPSPSRLKERRDEEKKETKETKSKERQITEEDLEGKTEEEIEMMKLMGFASFDSTKGKKVDGSVNAYAINVSQKRKYRQYMNRKGGFNRPLDFIA [SNRNP27] . 53.3

Identify measured melting temperature obtained with HeLa Kyoto for MSNRVVCREASHAGSWYTASGPQLNAQLEGWLSQVQSTKRPARAIIAPHAGYTYCGSCAAHAYKQVDPSITRRIFILGPSHHVPLSRCALSSVDIYRTPLYDLRIDQKIYGELWKTGMFERMSLQTDEDEHSIEMHLPYTAKAMESHKDEFTIIPVLVGALSESKEQEFGKLFSKYLADPSNLFVVSSDFCHWGQRFRYSYYDESQGEIYRSIEHLDKMGMSIIEQLDPVSFSNYLKKYHNTICGRHPIGVLLNAITELQKNGMNMSFSFLNYAQSSQCRNWQDSSVSYAAGALTVH [MEMO1] . 54.2

Identify measured melting temperature obtained with HeLa Kyoto for MDGLLNPRESSKFIAENSRDVFIDSGGVRRVAELLLAKAAGPELRVEGWKALHELNPRAADEAAVNWVFVTDTLNFSFWSEQDEHKCVVRYRGKTYSGYWSLCAAVNRALDEGIPITSASYYATVTLDQVRNILRSDTDVSMPLVEERHRILNETGKILLEKFGGSFLNCVRESENSAQKLMHLVVESFPSYRDVTLFEGKRVSFYKRAQILVADTWSVLEGKGDGCFKDISSITMFADYRLPQVLAHLGALKYSDDLLKKLLKGEMLSYGDRQEVEIRGCSLWCVELIRDCLLELIEQKGEKPNGEINSILLDYYLWDYAHDHREDMKGIPFHRIRCIYY [C9ORF64] . 49.7

Identify measured melting temperature obtained with HeLa Kyoto for MATEGDVELELETETSGPERPPEKPRKHDSGAADLERVTDYAEEKEIQSSNLETAMSVIGDRRSREQKAKQEREKELAKVTIKKEDLELIMTEMEISRAAAERSLREHMGNVVEALIALTN [HYPK] . 54

Identify measured melting temperature obtained with HeLa Kyoto for MAALRVLLSCVRGPLRPPVRCPAWRPFASGANFEYIIAEKRGKNNTVGLIQLNRPKALNALCDGLIDELNQALKTFEEDPAVGAIVLTGGDKAFAAGADIKEMQNLSFQDCYSSKFLKHWDHLTQVKKPVIAAVNGYAFGGGCELAMMCDIIYAGEKAQFAQPEILIGTIPGAGGTQRLTRAVGKSLAMEMVLTGDRISAQDAKQAGLVSKICPVETLVEEAIQCAEKIASNSKIVVAMAKESVNAAFEMTLTEGSKLEKKLFYSTFATDDRKEGMTAFVEKRKANFKDQ [ECHS1] . 53.3

Identify measured melting temperature obtained with HeLa Kyoto for MAGRLLGKALAAVSLSLALASVTIRSSRCRGIQAFRNSFSSSWFHLNTNVMSGSNGSKENSHNKARTSPYPGSKVERSQVPNEKVGWLVEWQDYKPVEYTAVSVLAGPRWADPQISESNFSPKFNEKDGHVERKSKNGLYEIENGRPRNPAGRTGLVGRGLLGRWGPNHAADPIITRWKRDSSGNKIMHPVSGKHILQFVAIKRKDCGEWAIPGGMVDPGEKISATLKREFGEEALNSLQKTSAEKREIEEKLHKLFSQDHLVIYKGYVDDPRNTDNAWMETEAVNYHDETGEIMDNLMLEAGDDAGKVKWVDINDKLKLYASHSQFIKLVAEKRDAHWSEDSEADCHAL [NUDT9] . 50.5

Identify measured melting temperature obtained with HeLa Kyoto for MAAMASLGALALLLLSSLSRCSAEACLEPQITPSYYTTSDAVISTETVFIVEISLTCKNRVQNMALYADVGGKQFPVTRGQDVGRYQVSWSLDHKSAHAGTYEVRFFDEESYSLLRKAQRNNEDISIIPPLFTVSVDHRGTWNGPWVSTEVLAAAIGLVIYYLAFSAKSHIQA [SSR4] . 54.9

Identify measured melting temperature obtained with HeLa Kyoto for MSSSVEQKKGPTRQRKCGFCKSNRDKECGQLLISENQKVAAHHKCMLFSSALVSSHSDNESLGGFSIEDVQKEIKRGTKLMCSLCHCPGATIGCDVKTCHRTYHYHCALHDKAQIREKPSQGIYMVYCRKHKKTAHNSEADLEESFNEHELEPSSPKSKKKSRKGRPRKTNFKGLSEDTRSTSSHGTDEMESSSYRDRSPHRSSPSDTRPKCGFCHVGEEENEARGKLHIFNAKKAAAHYKCMLFSSGTVQLTTTSRAEFGDFDIKTVLQEIKRGKRMKCTLCSQPGATIGCEIKACVKTYHYHCGVQDKAKYIENMSRGIYKLYCKNHSGNDERDEEDEERESKSRGKVEIDQQQLTQQQLNGN [PHF6] . 50.6

Identify measured melting temperature obtained with HeLa Kyoto for MSGGKYVDSEGHLYTVPIREQGNIYKPNNKAMADELSEKQVYDAHTKEIDLVNRDPKHLNDDVVKIDFEDVIAEPEGTHSFDGIWKASFTTFTVTKYWFYRLLSALFGIPMALIWGIYFAILSFLHIWAVVPCIKSFLIEIQCISRVYSIYVHTVCDPLFEAVGKIFSNVRINLQKEI [CAV1] . 54.6

Identify measured melting temperature obtained with HeLa Kyoto for MSEVTRSLLQRWGASFRRGADFDSWGQLVEAIDEYQILARHLQKEAQAQHNNSEFTEEQKKTIGKIATCLELRSAALQSTQSQEEFKLEDLKKLEPILKNILTYNKEFPFDVQPVPLRRILAPGEEENLEFEEDEEEGGAGAGSPDSFPARVPGTLLPRLPSEPGMTLLTIRIEKIGLKDAGQCIDPYITVSVKDLNGIDLTPVQDTPVASRKEDTYVHFNVDIELQKHVEKLTKGAAIFFEFKHYKPKKRFTSTKCFAFMEMDEIKPGPIVIELYKKPTDFKRKKLQLLTKKPLYLHLHQTLHKE [AIDA] . 50.5

Identify measured melting temperature obtained with HeLa Kyoto for MNRVNDPLIFIRDIKPGLKNLNVVFIVLEIGRVTKTKDGHEVRSCKVADKTGSITISVWDEIGGLIQPGDIIRLTRGYASMWKGCLTLYTGRGGELQKIGEFCMVYSEVPNFSEPNPDYRGQQNKGAQSEQKNNSMNSNMGTGTFGPVGNGVHTGPESREHQFSHAGRSNGRGLINPQLQGTASNQTVMTTISNGRDPRRAFKR [NABP1] . 50.7

Identify measured melting temperature obtained with HeLa Kyoto for MERPDKAALNALQPPEFRNESSLASTLKTLLFFTALMITVPIGLYFTTKSYIFEGALGMSNRDSYFYAAIVAVVAVHVVLALFVYVAWNEGSRQWREGKQD [VMA21] . 56.7
